Experiment: Tested for hydrolysis in presence of boric acid, dissociation constant was evaluated at the pH 9.5(Apparent inhibition constant)
Type: ADME
Readout Name: Ki
Answers without a unit are incomplete; give the number and then its unit.

Query :: # Ki lookup, item "O=C(Oc1ccc([N+](=O)[O-])cc1)c1cccc(O)c1O"
Result :: 230 µM

---

Assay: Tested for hydrolysis in presence of boric acid, dissociation constant was evaluated at the pH 8.5(Apparent inhibition constant)
Type: ADME
Readout Name: Ki (µM)
// note: answer is a bare numeric in µM

Query :: # Ki lookup, item "O=C(Oc1ccc([N+](=O)[O-])cc1)c1cccc(O)c1O"
Result :: 380

---

Biological target: Chymotrypsinogen A (Bos taurus, UniProt P00766)
Experiment: Tested for inhibition of hydrolysis in presence of alpha-chymotrypsin and […](Apparent inhibition constant)
Readout Name: pKi
Scale: pKi equals -log10([C]), with [C] in mol/L.

Query :: # pKi lookup, item "O=C(Oc1ccc([N+](=O)[O-])cc1)c1cccc(O)c1O"
Result :: 1.40

---

Assay: pKa value was determined
Type: physicochemical
Readout Name: pKa
When you answer, write just the number.

Query :: # pKa lookup, item "O=C(Oc1ccc([N+](=O)[O-])cc1)c1cccc(O)c1O"
Result :: 8.8

---

Assay: Tested for hydrolysis in presence of phenylboronic acid, dissociation constant was evaluated at the pH 9.5(Apparent inhibition constant)
Type: ADME
Readout Name: Ki (µM)
// note: answer is a bare numeric in µM

Query :: # Ki lookup, item "O=C(Oc1ccc([N+](=O)[O-])cc1)c1cccc(O)c1O"
Result :: 250
